Values were extracted from PubChem BioAssay.

experiment: inhibition of endothelial tube formation, primary screen, imaging, VEGF stimulated, CD31 staining, tube area, NPC library (AID 1117340); conditions: VEGF-stimulated ADSC/ECFC co-culture, at 10 µM
The source made the active and inactive calls.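 Rule for the calls: active = compound that reduces growth-factor-driven endothelial tube area in a mixed cell culture, no cutoff stated; inactive = the rest.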 Starred links: 1 amine or outer side, 2 acyl side, 3 side chain; linkers in the order of their positions; H or OH if unused. Positions of bridges follow the written chain, without caps; N, C: chain ends. Non-standard residues stand in square brackets, D forms with d. Residues, ends and D or L forms follow the SMILES beside them. Chains are numbered I, II in the order given. Actinocin(9to1) = Cc1c2oc3c(C)ccc(C(=O)[*:1])c3nc-2c(C(=O)[*:2])c(N)c1=O; NMeV = CN[C@H](C(=O)O)C(C)C; Sar = CNCC(=O)O
Respond only with the outcome that fits, drawn from 1 (active), -1 (inactive)

Completed entries (count: 5):
MOLECULE	CLASS_LABEL
Cc1cc2cc3c(C)cc(=O)oc3c(C)c2o1	-1
Cc1c2oc3c(C)ccc(C(=O)N[C@@H]4C(=O)N[C@H](C(C)C)C(=O)N5CCC[C@H]5C(=O)N(C)CC(=O)N(C)[C@@H](C(C)C)C(=O)O[C@@H]4C)c3nc-2c(C(=O)N[C@@H]2C(=O)N[C@H](C(C)C)C(=O)N3CCC[C@H]3C(=O)N(C)CC(=O)N(C)[C@@H](C(C)C)C(=O)O[C@@H]2C)c(N)c1=O (I: T[dV]P[Sar][NMeV] / II: T[dV]P[Sar][NMeV]; ester I:1-I:C, II:1-II:C; linker I:N-II:N via Actinocin(9to1))	1
CCCCOc1ccc(CC(=O)NO)cc1	-1
Nc1ccc(N=Nc2ccccc2)c(N)n1	-1
Cc1cc2nc3c(=O)[nH]c(=O)nc-3n(C[C@H](O)[C@H](O)[C@H](O)CO)c2cc1C	-1

Could you please tell me the result logged for CCCCCCOc1ccccc1C(N)=O in this assay?
-1

Could you please tell me the result logged for NC[C@H]1O[C@H](O[C@H]2[C@H](O)[C@@H](O[C@H]3O[C@H](CO)[C@@H](O)[C@H](N)[C@H]3O)[C@H](N)C[C@@H]2N)[C@H](N)[C@@H](O)[C@@H]1O in this assay?
-1

Could you please tell me the result logged for Oc1ccc(C2CNCCc3c2cc(O)c(O)c3Cl)cc1 (stereo not drawn) in this assay?
1

Could you please tell me the result logged for CN(C)CC/C=C1/c2ccccc2COc2ccc(CC(=O)O)cc21 in this assay?
-1

Could you please tell me the result logged for COc1cc(N)c(Cl)cc1C(=O)NC1CCN(Cc2ccccc2)CC1 in this assay?
-1
